Origin of the recorded values: ChEMBL document CHEMBL1145431

- System: Mus musculus
- EXPERIMENT: Effect on mineral content in ovariectomized mouse at 0.1103 mmol/kg, ip once daily for 4 weeks
- Assay type: functional
Where a SMILES comes first, the peptide text is derived from it. The star is where a group is joined. Succinyl(O17-estradiol) = C[C@]12CC[C@@H]3c4ccc(O)cc4CC[C@H]3[C@@H]1CC[C@@H]2OC(=O)CCC(=O)*; X2 = C[C@]12CC[C@@H]3c4ccc(OCC(=O)*)cc4CC[C@H]3[C@@H]1CCC2=O; X1 = C[C@]12CC[C@@H]3c4ccc(OCC(=O)*)cc4CC[C@H]3[C@@H]1CCC2O
Response field label takes yes (1) when Ratio is strictly below 0.5 and no (0) in all other cases.

N=C(N)NCCC[C@H](N)C(=O)NCC(=O)N[C@@H](CC(=O)O)C(=O)N[C@@H](CO)C(=O)O : yes (1)
C[C@]12CC[C@@H]3c4ccc(OCC(=O)N[C@@H](CCCNC(=N)N)C(=O)NCC(=O)N[C@@H](CC(=O)O)C(=O)N[C@@H](CO)C(=O)O)cc4CC[C@H]3[C@@H]1CCC2O (stereo partly drawn) (X1-RGDS-OH) : no (0)
C[C@]12CC[C@@H]3c4ccc(OCC(=O)N[C@@H](CCCNC(=N)N)C(=O)NCC(=O)N[C@@H](CC(=O)O)C(=O)N[C@@H](Cc5ccccc5)C(=O)O)cc4CC[C@H]3[C@@H]1CCC2O (stereo partly drawn) (X1-RGDF-OH) : no (0)
CC(C)[C@H](NC(=O)[C@H](CC(=O)O)NC(=O)CNC(=O)[C@H](CCCNC(=N)N)NC(=O)COc1ccc2c(c1)CC[C@@H]1[C@@H]2CC[C@]2(C)C(O)CC[C@@H]12)C(=O)O (stereo partly drawn) (X1-RGDV-OH) : no (0)
N=C(N)NCCC[C@H](N)C(=O)NCC(=O)N[C@@H](CC(=O)O)C(=O)N[C@@H](Cc1ccccc1)C(=O)O (H-RGDF-OH) : yes (1)
C[C@]12CC[C@@H]3c4ccc(OCC(=O)N[C@@H](CCCNC(=N)N)C(=O)NCC(=O)N[C@@H](CC(=O)O)C(=O)N[C@@H](CO)C(=O)O)cc4CC[C@H]3[C@@H]1CCC2=O (X2-RGDS-OH) : yes (1)
CC(C)[C@H](NC(=O)[C@H](CC(=O)O)NC(=O)CNC(=O)[C@@H](N)CCCNC(=N)N)C(=O)O (H-RGDV-OH) : yes (1)
CC(C)[C@H](NC(=O)[C@H](CC(=O)O)NC(=O)CNC(=O)[C@H](CCCNC(=N)N)NC(=O)COc1ccc2c(c1)CC[C@@H]1[C@@H]2CC[C@]2(C)C(=O)CC[C@@H]12)C(=O)O (X2-RGDV-OH) : yes (1)
CC(C)[C@H](NC(=O)[C@H](CC(=O)O)NC(=O)CNC(=O)[C@H](CCCNC(=N)N)NC(=O)CCC(=O)O[C@H]1CC[C@H]2[C@@H]3CCc4cc(O)ccc4[C@H]3CC[C@]12C)C(=O)O ({Succinyl(O17-estradiol)}-RGDV-OH) : no (0)
C[C@]12CC[C@@H]3c4ccc(O)cc4CC[C@H]3[C@@H]1CC[C@@H]2OC(=O)CCC(=O)N[C@@H](CCCNC(=N)N)C(=O)NCC(=O)N[C@@H](CC(=O)O)C(=O)N[C@@H](Cc1ccccc1)C(=O)O ({Succinyl(O17-estradiol)}-RGDF-OH) : no (0)
C[C@]12CC[C@@H]3c4ccc(O)cc4CC[C@H]3[C@@H]1CC[C@@H]2OC(=O)CCC(=O)N[C@@H](CCCNC(=N)N)C(=O)NCC(=O)N[C@@H](CC(=O)O)C(=O)N[C@@H](CO)C(=O)O ({Succinyl(O17-estradiol)}-RGDS-OH) : no (0)
C[C@]12CC[C@@H]3c4ccc(O)cc4CC[C@H]3[C@@H]1CCC2=O [ESTRONE] : yes (1)
C[C@]12CC[C@@H]3c4ccc(OCC(=O)N[C@@H](CCCNC(=N)N)C(=O)NCC(=O)N[C@@H](CC(=O)O)C(=O)N[C@@H](Cc5ccccc5)C(=O)O)cc4CC[C@H]3[C@@H]1CCC2=O (X2-RGDF-OH) : yes (1)

---

- Tested on: Mus musculus
- EXPERIMENT: Effect on phosphorus level in ovariectomized mouse at 0.1103 mmol/kg, ip once daily for 4 weeks
- Assay type: functional
Where a SMILES comes first, the peptide text is derived from it. The star is where a group is joined. Succinyl(O17-estradiol) = C[C@]12CC[C@@H]3c4ccc(O)cc4CC[C@H]3[C@@H]1CC[C@@H]2OC(=O)CCC(=O)*; X2 = C[C@]12CC[C@@H]3c4ccc(OCC(=O)*)cc4CC[C@H]3[C@@H]1CCC2=O
# Activity per entry
REPORTED METRIC: Activity (%)

CC(C)[C@H](NC(=O)[C@H](CC(=O)O)NC(=O)CNC(=O)[C@H](CCCNC(=N)N)NC(=O)CCC(=O)O[C@H]1CC[C@H]2[C@@H]3CCc4cc(O)ccc4[C@H]3CC[C@]12C)C(=O)O ({Succinyl(O17-estradiol)}-RGDV-OH) : 24.867
C[C@]12CC[C@@H]3c4ccc(OCC(=O)N[C@@H](CCCNC(=N)N)C(=O)NCC(=O)N[C@@H](CC(=O)O)C(=O)N[C@@H](CO)C(=O)O)cc4CC[C@H]3[C@@H]1CCC2=O (X2-RGDS-OH) : 24.399

---

- Test system: Mus musculus
- EXPERIMENT: Effect on serum phosphorus level in ovariectomized mouse at 0.1103 mmol/kg, ip once daily for 4 weeks
- Format: functional
Where a SMILES comes first, the peptide text is derived from it. The star is where a group is joined. Succinyl(O17-estradiol) = C[C@]12CC[C@@H]3c4ccc(O)cc4CC[C@H]3[C@@H]1CC[C@@H]2OC(=O)CCC(=O)*; X2 = C[C@]12CC[C@@H]3c4ccc(OCC(=O)*)cc4CC[C@H]3[C@@H]1CCC2=O; X1 = C[C@]12CC[C@@H]3c4ccc(OCC(=O)*)cc4CC[C@H]3[C@@H]1CCC2O
REPORTED METRIC: Activity (mmol/L)

C[C@]12CC[C@@H]3c4ccc(O)cc4CC[C@H]3[C@@H]1CC[C@@H]2OC(=O)CCC(=O)N[C@@H](CCCNC(=N)N)C(=O)NCC(=O)N[C@@H](CC(=O)O)C(=O)N[C@@H](Cc1ccccc1)C(=O)O ({Succinyl(O17-estradiol)}-RGDF-OH) : 1.605
C[C@]12CC[C@@H]3c4ccc(O)cc4CC[C@H]3[C@@H]1CCC2=O [ESTRONE] : 1.601
C[C@]12CC[C@@H]3c4ccc(OCC(=O)N[C@@H](CCCNC(=N)N)C(=O)NCC(=O)N[C@@H](CC(=O)O)C(=O)N[C@@H](CO)C(=O)O)cc4CC[C@H]3[C@@H]1CCC2=O (X2-RGDS-OH) : 1.604
CC(C)[C@H](NC(=O)[C@H](CC(=O)O)NC(=O)CNC(=O)[C@H](CCCNC(=N)N)NC(=O)CCC(=O)O[C@H]1CC[C@H]2[C@@H]3CCc4cc(O)ccc4[C@H]3CC[C@]12C)C(=O)O ({Succinyl(O17-estradiol)}-RGDV-OH) : 1.605
C[C@]12CC[C@@H]3c4ccc(OCC(=O)N[C@@H](CCCNC(=N)N)C(=O)NCC(=O)N[C@@H](CC(=O)O)C(=O)N[C@@H](Cc5ccccc5)C(=O)O)cc4CC[C@H]3[C@@H]1CCC2=O (X2-RGDF-OH) : 1.602
C[C@]12CC[C@@H]3c4ccc(O)cc4CC[C@H]3[C@@H]1CC[C@@H]2O [ESTRADIOL] : 1.601
N=C(N)NCCC[C@H](N)C(=O)NCC(=O)N[C@@H](CC(=O)O)C(=O)N[C@@H](Cc1ccccc1)C(=O)O (H-RGDF-OH) : 1.599
CC(C)[C@H](NC(=O)[C@H](CC(=O)O)NC(=O)CNC(=O)[C@H](CCCNC(=N)N)NC(=O)COc1ccc2c(c1)CC[C@@H]1[C@@H]2CC[C@]2(C)C(O)CC[C@@H]12)C(=O)O (some centres undefined) (X1-RGDV-OH) : 1.6
CC(C)[C@H](NC(=O)[C@H](CC(=O)O)NC(=O)CNC(=O)[C@@H](N)CCCNC(=N)N)C(=O)O (H-RGDV-OH) : 1.605
N=C(N)NCCC[C@H](N)C(=O)NCC(=O)N[C@@H](CC(=O)O)C(=O)N[C@@H](CO)C(=O)O : 1.603
C[C@]12CC[C@@H]3c4ccc(OCC(=O)N[C@@H](CCCNC(=N)N)C(=O)NCC(=O)N[C@@H](CC(=O)O)C(=O)N[C@@H](Cc5ccccc5)C(=O)O)cc4CC[C@H]3[C@@H]1CCC2O (some centres undefined) (X1-RGDF-OH) : 1.605
C[C@]12CC[C@@H]3c4ccc(O)cc4CC[C@H]3[C@@H]1CC[C@@H]2OC(=O)CCC(=O)N[C@@H](CCCNC(=N)N)C(=O)NCC(=O)N[C@@H](CC(=O)O)C(=O)N[C@@H](CO)C(=O)O ({Succinyl(O17-estradiol)}-RGDS-OH) : 1.602
C[C@]12CC[C@@H]3c4ccc(OCC(=O)N[C@@H](CCCNC(=N)N)C(=O)NCC(=O)N[C@@H](CC(=O)O)C(=O)N[C@@H](CO)C(=O)O)cc4CC[C@H]3[C@@H]1CCC2O (some centres undefined) (X1-RGDS-OH) : 1.599
CC(C)[C@H](NC(=O)[C@H](CC(=O)O)NC(=O)CNC(=O)[C@H](CCCNC(=N)N)NC(=O)COc1ccc2c(c1)CC[C@@H]1[C@@H]2CC[C@]2(C)C(=O)CC[C@@H]12)C(=O)O (X2-RGDV-OH) : 1.602
